// log10(CL) lookup, one value per entry
# test.protocol: Metabolic stability in human assessed as intrinsic clearance measured per mg protein
# Type: ADME
Lab note - CL converted to log10 from values in µL/min.

1) CC(C)(C)N1C[C@@H](C(=O)Nc2nccn2Cc2ccccc2N2CCCCC2)[C@H](c2ccc(F)cc2F)C1.Cl | 2.79
2) CC(C)(C)N1C[C@@H](C(=O)Nc2nccn2Cc2ccccc2N2CCC(C(N)=O)CC2)[C@H](c2ccc(F)cc2F)C1.Cl | 2.65
3) CC(C)(C)N1C[C@@H](C(=O)Nc2nccn2Cc2ccccc2-c2ccccc2)[C@H](c2ccc(F)cc2F)C1 | 2.93
4) CC(C)(C)N1C[C@@H](C(=O)Nc2nccn2Cc2ccccc2N2CCC(CC(=O)O)CC2)[C@H](c2ccc(F)cc2F)C1 | 1.59
5) CC(C)(C)N1C[C@@H](C(=O)Nc2nccn2Cc2ccccc2N2CCOCC2)[C@H](c2ccc(F)cc2F)C1.Cl | 2.82
6) Cc1ccc(Cn2ccnc2NC(=O)[C@@H]2CN(C(C)(C)C)C[C@H]2c2ccc(F)cc2F)c(N2CCC(C(=O)O)CC2)c1 | 1.45

Continue with the next compound.
Reported log10(CL), compound `CC(C)(C)N1C[C@@H](C(=O)Nc2nccn2Cc2ccc(C(F)(F)F)cc2N2CCC(C(=O)O)CC2)[C@H](c2ccc(F)cc2F)C1` : ____
1.40
